- Tested on: primary osteoblasts
- Protocol Description: MTT assay for cell proliferation, primary osteoblast cell culture
- Format: cell-based, Balb/c mouse
- Protocol Conditions: 10^−11 M; 24 h; Vehicle 0.60 ± 0.06; Mean±SEM
Mark Fulfilled only for Osteoblast cell proliferation (MTT assay) values smaller than 1; exact matches and larger values are Not fulfilled.

Some solved cases for reference:
                                   molecule               system  assigned_category
0  COc1ccc(-c2coc3cc(O)ccc3c2=O)cc1 [Compound K080, 7-hydroxy, 4′-methoxy-isoflavone]  primary osteoblasts      Not fulfilled
1  COc1ccc2c(c1)OC1c3ccc(O)cc3OCC21 (centres unmarked) [Compound K095, 3-hydroxy-9-methoxypterocarpans]  primary osteoblasts      Not fulfilled
2  COc1cc(O)c2c(=O)c(-c3ccc(O)cc3O)coc2c1 [Compound K051, 2′,4′,5-trihydroxy-7-methoxy isoflavones]  primary osteoblasts          Fulfilled
3  COc1ccc(-c2coc3cc(O)ccc3c2=O)cc1O [Compound K054, 7, 3′-dihydroxy-4′-methoxyisoflavone]  primary osteoblasts          Fulfilled

Okay, next one:
Prompt line: Strictly below 1 in Osteoblast cell proliferation (MTT assay)? COc1ccc2c(=O)c(-c3ccc(O)cc3)coc2c1 [Compound K052, 4′-hydroxy, 7-methoxy-isoflavone]
Response line: Not fulfilled

---

- Tested on: osteoblasts
- Protocol Description: Quantification of alkaline phosphatase activity in osteoblasts
- Format: cell-based, Balb/c mouse
- Parameters: unit not given here
- Protocol Conditions: 10^−9 M; 48 h; Control 1.87 ± 0.20; Mean±SEM
Measured Attribute: alkaline phosphatase activity
Answer with a number only.

Use the examples below as a reference point.
>>> df
                                   molecule       system  numeric_value
0  COc1ccc2c(=O)c(-c3ccc(O)cc3)coc2c1 [Compound K052, 4′-hydroxy, 7-methoxy-isoflavone]  osteoblasts           3.07
1  COc1ccc(-c2coc3cc(O)ccc3c2=O)cc1O [Compound K054, 7, 3′-dihydroxy-4′-methoxyisoflavone]  osteoblasts           3.32
2  COc1ccc(-c2coc3cc(O)ccc3c2=O)cc1 [Compound K080, 7-hydroxy, 4′-methoxy-isoflavone]  osteoblasts           3.33
3  COc1ccc2c(c1)OC1c3ccc(O)cc3OCC21 (centres unmarked) [Compound K095, 3-hydroxy-9-methoxypterocarpans]  osteoblasts           3.54

Prompt line: Identify alkaline phosphatase activity associated with the molecule COc1cc(O)c2c(=O)c(-c3ccc(O)cc3O)coc2c1 [Compound K051, 2′,4′,5-trihydroxy-7-methoxy isoflavones]
Response line: 3.50

---

- Tested on: osteoblasts
- Protocol Description: Quantification of alkaline phosphatase activity in osteoblasts
- Format: cell-based, Balb/c mouse
- Design: unit not given here
- Protocol Conditions: 10^−7 M; 48 h; Control 1.87 ± 0.20; Mean±SEM
Measured Attribute: alkaline phosphatase activity
Answer with a number only.

In [3]: df
Out[3]:
                                   compound       system             measured_attribute  numeric_value
0  COc1ccc2c(=O)c(-c3ccc(O)cc3)coc2c1 [Compound K052, 4′-hydroxy, 7-methoxy-isoflavone]  osteoblasts  alkaline phosphatase activity           3.05
1  COc1ccc(-c2coc3cc(O)ccc3c2=O)cc1O [Compound K054, 7, 3′-dihydroxy-4′-methoxyisoflavone]  osteoblasts  alkaline phosphatase activity           3.32
2  COc1cc(O)c2c(=O)c(-c3ccc(O)cc3O)coc2c1 [Compound K051, 2′,4′,5-trihydroxy-7-methoxy isoflavones]  osteoblasts  alkaline phosphatase activity           3.23
3  COc1ccc2c(c1)OC1c3ccc(O)cc3OCC21 (centres unmarked) [Compound K095, 3-hydroxy-9-methoxypterocarpans]  osteoblasts  alkaline phosphatase activity           3.50

Alright, here's another compound for you.
Prompt line: Look up and report alkaline phosphatase activity, with osteoblasts as system, for COc1ccc(-c2coc3cc(O)ccc3c2=O)cc1 [Compound K080, 7-hydroxy, 4′-methoxy-isoflavone]
Response line: 3.46

---

- Tested on: osteoblasts
- Protocol Description: Quantification of alkaline phosphatase activity in osteoblasts
- Type: cell-based, Balb/c mouse
- Design: unit not given here
- Protocol Conditions: 10^−11 M; 48 h; Control 1.87 ± 0.20; Mean±SEM
Measured Attribute: alkaline phosphatase activity
Answer with a number only.

Prompt line: Identify alkaline phosphatase activity associated with the molecule COc1ccc2c(c1)OC1c3ccc(O)cc3OCC21 (centres unmarked) [Compound K095, 3-hydroxy-9-methoxypterocarpans]
Response line: 3.51

---

- System: primary osteoblasts
- Protocol Description: MTT assay for cell proliferation, primary osteoblast cell culture
- Format: cell-based, Balb/c mouse
- Protocol Conditions: 10^−8 M; 24 h; Vehicle 0.60 ± 0.06; Mean±SEM
Measured Attribute: Osteoblast cell proliferation (MTT assay)
Answer with a number only.

Use the examples below as a reference point.
                                   molecule  numeric_value
0  COc1cc(O)c2c(=O)c(-c3ccc(O)cc3O)coc2c1 [Compound K051, 2′,4′,5-trihydroxy-7-methoxy isoflavones]           1.32
1  COc1ccc2c(c1)OC1c3ccc(O)cc3OCC21 (centres unmarked) [Compound K095, 3-hydroxy-9-methoxypterocarpans]           1.24
2  COc1ccc(-c2coc3cc(O)ccc3c2=O)cc1O [Compound K054, 7, 3′-dihydroxy-4′-methoxyisoflavone]           1.24
3  COc1ccc(-c2coc3cc(O)ccc3c2=O)cc1 [Compound K080, 7-hydroxy, 4′-methoxy-isoflavone]           1.47

Alright, here's another molecule for you.
Prompt line: Look up and report Osteoblast cell proliferation (MTT assay), with primary osteoblasts as system, for COc1ccc2c(=O)c(-c3ccc(O)cc3)coc2c1 [Compound K052, 4′-hydroxy, 7-methoxy-isoflavone]
Response line: 1.73

---

Reported alkaline phosphatase activity by item:
- Test system: osteoblasts
- Protocol Description: Quantification of alkaline phosphatase activity in osteoblasts
- Type: cell-based, Balb/c mouse
- Parameters: unit not given here
- Protocol Conditions: 10^−10 M; 48 h; Control 1.87 ± 0.20; Mean±SEM
Answer with a number only.

In [3]: df
Out[3]:
                                   compound  numeric_value
0  COc1ccc2c(=O)c(-c3ccc(O)cc3)coc2c1 [Compound K052, 4′-hydroxy, 7-methoxy-isoflavone]           3.01
1  COc1cc(O)c2c(=O)c(-c3ccc(O)cc3O)coc2c1 [Compound K051, 2′,4′,5-trihydroxy-7-methoxy isoflavones]           3.59

Prompt line: Identify alkaline phosphatase activity associated with the compound COc1ccc2c(c1)OC1c3ccc(O)cc3OCC21 (centres unmarked) [Compound K095, 3-hydroxy-9-methoxypterocarpans]
Response line: 3.40

Prompt line: Identify alkaline phosphatase activity associated with the compound COc1ccc(-c2coc3cc(O)ccc3c2=O)cc1O [Compound K054, 7, 3′-dihydroxy-4′-methoxyisoflavone]
Response line: 3.22

Prompt line: Identify alkaline phosphatase activity associated with the compound COc1ccc(-c2coc3cc(O)ccc3c2=O)cc1 [Compound K080, 7-hydroxy, 4′-methoxy-isoflavone]
Response line: 3.27

---

- System: osteoblasts
- Protocol Description: Quantification of alkaline phosphatase activity in osteoblasts
- Format: cell-based, Balb/c mouse
- Set-up: unit not given here
- Protocol Conditions: 10^−11 M; 48 h; Control 1.87 ± 0.20; Mean±SEM
Reported alkaline phosphatase activity by item:
Answer with a number only.

Prompt line: Identify alkaline phosphatase activity associated with the molecule COc1ccc(-c2coc3cc(O)ccc3c2=O)cc1 [Compound K080, 7-hydroxy, 4′-methoxy-isoflavone]
Response line: 3.38

Prompt line: Identify alkaline phosphatase activity associated with the molecule COc1cc(O)c2c(=O)c(-c3ccc(O)cc3O)coc2c1 [Compound K051, 2′,4′,5-trihydroxy-7-methoxy isoflavones]
Response line: 3.63

Prompt line: Identify alkaline phosphatase activity associated with the molecule COc1ccc2c(=O)c(-c3ccc(O)cc3)coc2c1 [Compound K052, 4′-hydroxy, 7-methoxy-isoflavone]
Response line: 3.17

Prompt line: Identify alkaline phosphatase activity associated with the molecule COc1ccc(-c2coc3cc(O)ccc3c2=O)cc1O [Compound K054, 7, 3′-dihydroxy-4′-methoxyisoflavone]
Response line: 3.01
